Catalogue of ΔTm readings, one per entry.
Tested on: Poly(dA-dU)oligonucleotide
Assay Overview: Binding affinity to polyA-polyU dsRNA (unknown origin) assessed as change in melting temperature at 0.3 ratio of compound to RNA by spectrophotometric analysis
Type: nucleic-acid assay
Numeric answer only, unit °C assumed.

These solved cases illustrate the format of a correct answer.
{"columns": ["Structure", "Reading Unit", "ΔTm"],
 "data": [
  ["c1ccc2[nH]c(-c3ccc(Cn4cc(COCc5cn(Cc6ccc(-c7nc8ccccc8[nH]7)o6)nn5)nn4)o3)nc2c1", "°C", 0],
  ["Cl.Cl.N=C(N)c1ccc2[nH]c(-c3ccc(Cn4cc(COCc5cn(Cc6ccc(-c7nc8cc(C(=N)N)ccc8[nH]7)o6)nn5)nn4)o3)nc2c1", "°C", 3.5],
  ["Clc1ccc2[nH]c(-c3ccc(Cn4cc(COc5ccc(OCc6cn(Cc7ccc(-c8nc9cc(Cl)ccc9[nH]8)o7)nn6)cc5)nn4)o3)nc2c1", "°C", 0],
  ["Clc1ccc2[nH]c(-c3ccc(Cn4cc(COc5ccc(-c6ccc(OCc7cn(Cc8ccc(-c9nc%10cc(Cl)ccc%10[nH]9)o8)nn7)cc6)cc5)nn4)o3)nc2c1", "°C", 0],
  ["Cl.Cl.c1cc2[nH]c(-c3ccc(Cn4cc(CCCc5cn(Cc6ccc(-c7nc8cc(C9=NCCN9)ccc8[nH]7)o6)nn5)nn4)o3)nc2cc1C1=NCCN1", "°C", 1.8],
  ["Clc1ccc2[nH]c(-c3ccc(Cn4cc(COCc5cn(Cc6ccc(-c7nc8cc(Cl)ccc8[nH]7)o6)nn5)nn4)o3)nc2c1", "°C", 0.6]
]}

Ask | State the recorded ΔTm for this entry: `CC(C)NC(=N)c1ccc2[nH]c(-c3ccc(Cn4cc(COc5ccc(OCc6cn(Cc7ccc(-c8nc9cc(C(=N)NC(C)C)ccc9[nH]8)o7)nn6)cc5)nn4)o3)nc2c1.Cl.Cl`
Reply | 0

Ask | State the recorded ΔTm for this entry: `Cl.Cl.c1cc(OCc2cn(Cc3ccc(-c4nc5cc(C6=NCCN6)ccc5[nH]4)o3)nn2)ccc1OCc1cn(Cc2ccc(-c3nc4cc(C5=NCCN5)ccc4[nH]3)o2)nn1`
Reply | 2.2

Ask | State the recorded ΔTm for this entry: `Cl.Cl.N=C(N)c1ccc2[nH]c(-c3ccc(Cn4cc(CCCc5cn(Cc6ccc(-c7nc8cc(C(=N)N)ccc8[nH]7)o6)nn5)nn4)o3)nc2c1`
Reply | 0.6
